# SYSTEM TESTED: human Bisphosphoglycerate mutase (hBPGM) (Homo sapiens)
# TEST DESCRIPTION: BPGM phosphatase assay
# Assay type: biochemical
# ASSAY CONTEXT: Table 6; read-out: huBPGM: phosphatase Enzyme EC50
# Protocol: […] A 3-PG enzyme mix solution (final enzyme concentration 62.5 nM, 3-PG concentration at 50 µM, 14.5 uL) was added to onto a 384-well clear plate. […] Absorbance measurements were recorded at 620 nm.
pEC50: −log10 of the molar value.
QUANTITY MEASURED: pEC50

Reference set (8 entries):
Cc1nc(CNc2ncccn2)sc1-c1cccc(-c2cc(F)c(O)c(F)c2F)n1 [Example 168] :: 6.89
Cc1nc(COc2ncccn2)sc1-c1csc(-c2cc(F)c3[nH]nnc3c2)c1 [Example 145] :: 7.52
Cc1nc(CNC(=O)c2cccnn2)sc1-c1csc(-c2cc(F)c(O)c(F)c2F)n1 [Example 188] :: 6.85
COC(=O)NCc1nc(C)c(-c2csc(-c3cc(O)c(C#N)cc3F)c2)s1 [Example 189] :: 6.51
Cc1nc(COC(C)C(=O)N(C)C)sc1-c1csc(-c2cc(F)c(O)c(F)c2F)n1 (stereo not shown) [Example 98] :: 6.42
Cc1nc(COc2ncc(C(=O)O)cn2)sc1-c1cccc(-c2cc(F)c3nn[nH]c3c2F)n1 [Example 135] :: 6.62
Cc1nc(COc2ncccn2)sc1-c1cccc(-c2ccc(C(=O)NS(=O)(=O)c3ccccc3)cc2)n1 [Example 157] :: 6.62
Cc1nc(COCC(=O)N(C)C)sc1-c1csc(-c2cc(F)c(O)c(F)c2F)n1 [Example 160] :: 6.28

[1] Cc1nc(CNc2ncccn2)sc1-c1csc(-c2cc(F)c(O)c(F)c2F)n1 [Example 165]
[2] COC(=O)NCc1nc(C)c(-c2csc(-c3cc(F)c(O)c(F)c3F)n2)s1 [Example 187]
[3] Cc1nc(COc2ncccn2)sc1-c1cccc(-c2ccc3nnc(O)n3c2)n1 [Example 151]
[4] Cc1nc(COc2ncccn2)sc1-c1cccc(-c2cc(F)c3[nH]nnc3c2)c1 [Example 177]
Problem: Arrange items by their pEC50 values in increasing order. In your reply, arrange the labels in the requested order.
Result: 3, 2, 4, 1
(3: 4.70, 2: 6.32, 4: 6.60, 1: 6.96)

###

# SYSTEM TESTED: UniProt:P07738
# Sequence (P07738 1-259): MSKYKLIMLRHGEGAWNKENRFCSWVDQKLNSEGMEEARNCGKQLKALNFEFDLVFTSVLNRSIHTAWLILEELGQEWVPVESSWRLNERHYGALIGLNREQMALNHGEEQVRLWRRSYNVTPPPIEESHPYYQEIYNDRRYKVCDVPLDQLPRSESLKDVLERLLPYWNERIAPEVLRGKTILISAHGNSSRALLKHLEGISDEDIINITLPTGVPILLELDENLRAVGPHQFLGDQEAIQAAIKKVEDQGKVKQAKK
# TEST DESCRIPTION: BPGM phosphatase assay
# Format: biochemical
# ASSAY CONTEXT: Table 6; read-out: huBPGM: phosphatase Enzyme EC50
# Procedure: […] A 3-PG enzyme mix solution (final enzyme concentration 62.5 nM, 3-PG concentration at 50 µM, 14.5 uL) was added to onto a 384-well clear plate. […] Absorbance measurements were recorded at 620 nm.
pEC50: −log10 of the molar value.
QUANTITY MEASURED: pEC50

[P] COC(=O)NCc1nc(C)c(-c2csc(-c3cc(F)c(O)cc3F)n2)s1
[Q] Cc1nc(COc2ncccn2)sc1-c1cccc(-c2ccc(-c3noc(=O)[nH]3)cc2)n1
[R] Cc1ccnc(OCc2nc(C)c(-c3cccc(-c4cc(F)c5nn[nH]c5c4)n3)s2)n1
Problem: List the 3 entries from lowest pEC50 to highest pEC50 value. Put the labels in the requested order and list them out.
Result: P, Q, R
(P: 5.77, Q: 6.77, R: 7.22)

[P] Cc1nc(COc2ncccn2)sc1-c1cccc(-c2cc(F)c(O)c(F)c2F)n1
[Q] COC(=O)NCc1nc(C)c(-c2csc(-c3ccc(O)c(F)c3F)n2)s1
[R] Cc1nc(COC(=O)N2CCN(C)CC2)sc1-c1cccc(-c2cc(F)c3nn[nH]c3c2)n1
[S] COC(=O)NCc1nc(C)c(-c2csc(-c3ccc(C(=O)NS(=O)(=O)c4ccccc4)cc3)n2)s1
[T] COC(=O)NCc1nc(C)c(-c2csc(-c3ccc(C(=O)Nc4nnn[nH]4)cc3)n2)s1
Problem: Sort (5 molecules) by pEC50: min first. Rank the items, then write their labels in that order.
Result: T, Q, R, P, S

###

# SYSTEM TESTED: hBPGM (Homo sapiens, UniProt P07738)
# TEST DESCRIPTION: BPGM synthase assay
# Format: biochemical
# ASSAY CONTEXT: Table 6; read-out: huBPGM: synthase Enzyme IC50
QUANTITY MEASURED: IC50 (nM)

Recorded IC50, per entry:
COC(=O)NCc1nc(C)c(-c2csc(-c3ccc(-c4nnn[nH]4)c(O)c3)n2)s1 :: 160
COC(=O)NCc1nc(C)c(-c2cccc(-c3cc(F)c4nn[nH]c4c3F)n2)s1 :: 33

[A] CC(=O)NCc1nc(C)c(-c2cccc(-c3cc(F)c4nn[nH]c4c3F)n2)s1
[B] Cc1nc(CNC(=O)N2CCC(O)C2)sc1-c1csc(-c2cc(F)c3[nH]nnc3c2F)n1 (stereo not shown)
Problem: Thinking about recorded IC50 values, which is higher, A or B ? Your choice should be expressed through its label.
Result: B

###

# SYSTEM TESTED: human Bisphosphoglycerate mutase (hBPGM) (Homo sapiens)
# TEST DESCRIPTION: BPGM phosphatase assay
# Format: biochemical
# ASSAY CONTEXT: Table 6; read-out: huBPGM: phosphatase Enzyme EC50
# Method: […] A 3-PG enzyme mix solution (final enzyme concentration 62.5 nM, 3-PG concentration at 50 µM, 14.5 uL) was added to onto a 384-well clear plate. […] Absorbance measurements were recorded at 620 nm.
QUANTITY MEASURED: EC50 (µM)

Cc1nc(COC(=O)N(C)C)sc1-c1csc(-c2cc(F)c(O)c(F)c2F)n1 [Example 137] :: 0.2

[1] COC(=O)NCc1nc(C)c(-c2csc(-c3ccc(C(=O)NS(C)(=O)=O)c(O)c3)n2)s1 [Example 206]
[2] Cc1cnc(OCc2nc(C)c(-c3cccc(-c4cc(F)c5nn[nH]c5c4)n3)s2)nc1 [Example 152]
[3] Cc1nc(COc2ccccn2)sc1-c1csc(-c2cc3nn[nH]c3c(F)c2F)n1 [Example 176]
Problem: Sequence the entries by EC50, beginning with the highest number. Ranked list of labels, please, in the requested order.
Result: 1, 2, 3

###

# SYSTEM TESTED: hBPGM (Homo sapiens)
# TEST DESCRIPTION: BPGM synthase assay
# Type: biochemical
# ASSAY CONTEXT: Table 3; read-out: hBPGM Synthase IC50
QUANTITY MEASURED: IC50 (nM)

[I] Cc1nc(COc2ccccn2)sc1-c1csc(-c2cc(F)c(O)c(F)c2F)n1
[II] COC(=O)NCc1nc(C)c(-c2csc(-c3ccc(C(=O)NS(=O)(=O)c4ccccc4)cc3)n2)s1
[III] Cc1nc(COc2ncccn2)sc1-c1cccc(-c2ccc3nn[nH]c3c2)n1
[IV] Cc1nc(COc2ncccn2)sc1-c1cccc(-c2cc(F)c(O)c(C#N)c2)n1
Problem: Arrange these 4 molecules in increasing order of IC50. Provide the ranking by listing each label in its place in the requested order.
Result: II, IV, I, III

###

# SYSTEM TESTED: human Bisphosphoglycerate mutase (hBPGM) (Homo sapiens)
# TEST DESCRIPTION: BPGM phosphatase assay
# Format: biochemical
# ASSAY CONTEXT: Table 6; read-out: huBPGM: phosphatase Enzyme EC50
pEC50: −log10 of the molar value.
QUANTITY MEASURED: pEC50

[P] Cc1nc(COc2ncc(Cl)cn2)sc1-c1cccc(-c2cc(F)c3nn[nH]c3c2)n1 [Example 140]
[Q] Cc1nc(COc2ncccn2)sc1-c1csc(-c2cc(F)c(O)c(F)c2F)c1 [Example 154]
Problem: Pick one: P or Q . Which has the bigger pEC50 number? Give the label under which the chosen entry appears.
Result: P

###

# SYSTEM TESTED: hBPGM (Homo sapiens, UniProt P07738)
# TEST DESCRIPTION: BPGM synthase assay
# Assay type: biochemical
# ASSAY CONTEXT: Table 6; read-out: huBPGM: synthase Enzyme IC50
QUANTITY MEASURED: IC50 (nM)

Here are 3 molecules together with their reported answers.
COC(=O)NCc1nc(C)c(-c2csc(-c3ccc4[nH]nnc4c3F)n2)s1 [Example 156] :: 200
COC(=O)NCc1nc(C)c(-c2csc(-c3ccc(C(=O)NS(C)(=O)=O)c(O)c3)n2)s1 [Example 206] :: 1400
Cc1nc(COc2ncccn2)sc1-c1cccc(-c2cc(F)c(O)c(C#N)c2)n1 [compound 12] :: 260

[P] Cc1nc(COc2ncccn2)sc1-c1csc(-c2cc(F)c(O)c(F)c2F)n1 [Example 70]
[Q] Cc1nc(COc2ccccn2)sc1-c1cccc(-c2cc(O)c(C#N)c(F)c2)n1 [Example 120]
[R] Cc1nc(COc2ncccn2)sc1-c1cccc(-c2ccn3c(O)nnc3c2)n1 [Example 149]
[S] Cc1nc(COc2ncccn2)sc1-c1cccc(-c2cc(F)c(O)c(C#N)c2F)n1 [Example 231]
[T] Cc1nc(COC(=O)N2CCN(C)CC2)sc1-c1cccc(-c2cc(F)c3nn[nH]c3c2)n1 [Example 147]
Problem: Give the ascending ranking of the items by reported IC50. // list labels; follow requested order
Result: S, P, T, Q, R
